# experimental.details: Solubility test of salt of Formula A (acetate, Form A-I) and its free base in different solvents
# particulars: tetrahydrofuran, organic solvent or mixture, thermodynamic from solid

compound | solubility at 4 h
CS(=O)(=O)N1CCC(c2ccc(-c3cc4nccnc4c(NC[C@@H]4CNCCO4)n3)cc2)CC1 [Free base of Formula A] | 10.7 mg/mL

---

# experimental.details: Solubility test of salt of Formula A (acetate, Form A-I) and its free base in different solvents
# particulars: purified water, 37 °C, water, thermodynamic from solid

molecule | unit.abbrev | solubility at 4 h
CS(=O)(=O)N1CCC(c2ccc(-c3cc4nccnc4c(NC[C@@H]4CNCCO4)n3)cc2)CC1 [Free base of Formula A] | µg/mL | 2.5

---

# experimental.details: physchem
# particulars: water, thermodynamic from solid, Solubility (mg/mL)
quantity: solubility at 4 h (mg/mL)

compound | value.reported
CC(=O)O.CS(=O)(=O)N1CCC(c2ccc(-c3cc4nccnc4c(NC[C@@H]4CNCCO4)n3)cc2)CC1 [Form A-I] | 21.8

---

# experimental.details: Solubility test of salt of Formula A (acetate, Form A-I) and its free base in different solvents
# particulars: methanol, organic solvent or mixture, thermodynamic from solid

compound | solubility at 4 h, µg/mL
CS(=O)(=O)N1CCC(c2ccc(-c3cc4nccnc4c(NC[C@@H]4CNCCO4)n3)cc2)CC1 [Free base of Formula A] | 1580
